target: Ba/F3-Syk cells (Homo sapiens, UniProt P43405); construct: fused on or other part: Possible but unprinted fusion partner: TEL (ETV6), the usual partner for Ba/F3 lines transformed by Syk; Nothing on a partner is printed; experiment: Ba/F3 Proliferation Assay, Ba/F3-Syk cells (Resazurin); details: 48-hour incubation
Property Name: EC50 (nM)

> print(dat)
                                   compound                     target.or.test.system  property.name  measured.value
1  O=C1CCn2cc(-c3cc4ncccc4c(OC[C@@H]4CNCCO4)n3)cc21  Ba/F3-Syk cells (Homo sapiens, UniProt P43405)           EC50             147
2  FC(F)Cn1ccc(-c2cc3ncccc3c(OC[C@@H]3CNCCO3)n2)c1  Ba/F3-Syk cells (Homo sapiens, UniProt P43405)           EC50              63
3  CC(C)(C)[C@@H]1CNC[C@@H](COc2nc(-c3cnn(C(C)(C)C)c3)cc3ncccc23)O1  Ba/F3-Syk cells (Homo sapiens, UniProt P43405)           EC50            25.4
4  CC(C)n1cc(-c2cc3ncccc3c(O[C@H](C)[C@@H]3CNCC(C)(C)O3)n2)cn1  Ba/F3-Syk cells (Homo sapiens, UniProt P43405)           EC50            22.3
5  C[C@H]1CO[C@H](COc2nc(-c3cnn(C)c3)cc3ncccc23)CN1 (relative stereo)  Ba/F3-Syk cells (Homo sapiens, UniProt P43405)           EC50             216

I. C[C@H]1CNC[C@@H](COc2nc(-c3cnn(C)c3)cc3ncccc23)O1 [Compound 2.74]
II. C[C@@H]1CNC[C@@H](COc2nc(-c3cnn(C)c3)cc3ncccc23)O1 (relative stereo) [Compound 2.25]
In: Response body: label of entry with the larger EC50; valid values I , II . Answer = label.
Out: I
(I: 109 nM, II: 62.1 nM)

###

system: Ba/F3-WT (wild type) cells; assay: Ba/F3 Proliferation Assay, Ba/F3-WT (wild type) cells with mIL-3 (Resazurin); format: cell-based; conditions: Mus musculus, BaF3, 48 h, Ba/F3-WT cells +mIL-3, 48-hour incubation
Property Name: EC50 (nM)

# example entries with known answers
> print(dat)
                                   compound       target.or.test.system  measured.value
1  C[C@@H]1O[C@H](COc2nc(-c3cnn(C(C)(C)C)c3)cc3ncccc23)CN[C@@H]1C (relative stereo)  Ba/F3-WT (wild type) cells            2070
2  Cn1cc(-c2cc3ncccc3c(OC[C@@H]3CNCCO3)n2)cn1  Ba/F3-WT (wild type) cells            2350
3  Cn1ccc(-c2cc3ncccc3c(OCC3CNCCCO3)n2)c1 (centres unmarked)  Ba/F3-WT (wild type) cells            4060
4  CC1(C)CNC[C@@H](COc2cc(-c3ccn(C4CCC4)c3)cc3ncccc23)O1  Ba/F3-WT (wild type) cells            2100

1. FC(F)Cn1ccc(-c2cc(OC[C@@H]3CNCCO3)c3cccnc3c2)c1
2. Cn1cc(-c2cc3ncccc3c(O[C@@H]([C@@H]3CNCCO3)C(F)(F)F)n2)cn1
3. C[C@@H]1CNC[C@@H](COc2cc(-c3cnn(C)c3)cc3nccnc23)O1
4. Cn1ccc(-c2cc3ncccc3c(OC[C@@H]3CNCC(C)(C)O3)n2)c1
In: Sort these compounds on EC50 so the largest reading comes first. Thanks in advance for listing the labels in the requested order.
Out: 4, 2, 1, 3
(4: 6070 nM, 2: 3280 nM, 1: 2110 nM, 3: 1300 nM)

###

test system: Ba/F3-WT (wild type) cells; assay: Ba/F3 Proliferation Assay, Ba/F3-WT (wild type) cells with mIL-3 (Resazurin); type: cell-based; conditions: Mus musculus, BaF3, 48 h, Ba/F3-WT cells +mIL-3, 48-hour incubation
pEC50: −log10 of the molar value.
Property Name: pEC50

# example entries with known answers
> print(dat)
                                    compound  measured.value
 1  FC(F)Cn1cc(-c2cc3ncccc3c(OC[C@@H]3CNCCCO3)n2)cn1 [Compound 6.27]            5.25
 2  CC(C)n1ccc(-c2cc(OC[C@@H]3CNCC4(CCC4)O3)c3nccnc3c2)c1 [Compound 8.17]            6.16
 3  C[C@H]1CNC[C@@H](COc2nc(-c3ccn(C)c3)cc3ncccc23)O1 [Compound 2.75]            5.41
 4  F/C=C/n1cc(-c2cc3ncccc3c(OC[C@@H]3CNCCO3)n2)cn1 [Compound 6.8]            5.31
 5  c1cnc2cc(-c3ccn(C4COC4)c3)nc(OC[C@@H]3CNCCO3)c2c1 [Compound 6.11]            5.77
 6  C[C@@H]1CO[C@H](COc2nc(-c3cnn(C)c3)cc3ncccc23)CN1 (relative stereo) [Compound 2.27]            5.82
 7  C[C@H]1CNC[C@@H](COc2nc(-c3cnn(C)c3)cc3ncccc23)O1 [Compound 2.74]            5.54
 8  CC1(C)CNC[C@@H](COc2cc(-c3cnn(C(F)F)c3)cc3ncccc23)O1 [Compound 3.11]            5.67
 9  CCn1ccc(-c2cc(O[C@H](C)[C@@H]3CNCC(C)(C)O3)c3nccnc3c2)c1 [Compound 8.12]            6.27
10  CCn1ccc(-c2cc(OC[C@@H]3CNCC(C)(C)O3)c3cccnc3c2)c1 [Compound 7.17]            5.71

A. Cn1cc(-c2cc(OC[C@@H]3CNCC4(CCC4)O3)c3cccnc3c2)cn1 [Compound 11.7]
B. c1cnc2cc(-c3cnn4c3CCCC4)nc(OC[C@@H]3CNCCO3)c2c1 [Compound 10.4]
In: Of A versus B , which is the one with smaller reported pEC50? Answer = label.
Out: B
(B: 5.09, A: 5.97)

###

test system: Ba/F3-WT (wild type) cells; experiment: Ba/F3 Proliferation Assay, Ba/F3-WT (wild type) cells with mIL-3 (Resazurin); type: cell-based; settings: Mus musculus, BaF3, 48 h, Ba/F3-WT cells +mIL-3, 48-hour incubation
Property Name: EC50 (µM)

> print(dat)
                                   compound  measured.value
1  CCn1ccc(-c2cc3ncccc3c(O[C@H](C)[C@@H]3CNCCO3)n2)c1            3.35
2  CC1(C)CNC[C@@H](COc2nc(-c3ccn(C4CCC4)c3)cc3ncccc23)O1             1.8
3  CC[C@@]1(COc2nc(-c3cnn(C(C)(C)C)c3)cc3ncccc23)CNCCO1            2.55
4  c1cnc2cc(-c3cnn(C4CC4)c3)nc(OC[C@@H]3CNCCO3)c2c1             2.7
5  CC(C)n1ccc(-c2cc3ncccc3c(OC[C@@H]3CNCCO3)n2)c1            2.55

P. C[C@@H]1CNC[C@@H](COc2cc(-c3cnn(C(C)(C)C)c3)cc3nccnc23)O1
Q. C[C@@H]1CNC[C@@H](COc2nc(-c3cnn(C)c3)cc3ncccc23)O1 [Compound 2.76]
R. CC(C)n1cc(-c2cc3ncccc3c(OC[C@@H]3CNCC4(CCC4)O3)n2)cn1
S. c1cnc2cc(-c3ccns3)nc(OC[C@@H]3CNCCO3)c2c1
In: Give the ascending ranking of the items by reported EC50. Thanks in advance for listing the labels in the requested order.
Out: P, R, Q, S

A. CC[C@H](C)n1cc(-c2cc3ncccc3c(OC[C@@H]3CNCCO3)n2)cn1
B. CC(C)n1cc(-c2cc3ncccc3c(OC[C@@H]3CNCCO3)n2)cn1
In: Response body: label of entry with the larger EC50; valid values A , B . Answer = label.
Out: A

P. Cn1cc(-c2cc(OC[C@@H]3CNCC4(CC4)O3)c3cccnc3c2)cn1
Q. COCCn1cc(-c2cc3ncccc3c(OC[C@@H]3CNCCO3)n2)cn1
In: Of P versus Q , which is the one with smaller reported EC50? Answer = label.
Out: Q
(Q: 1.44 µM, P: 6.8 µM)

###

target: Ba/F3-Syk cells (Homo sapiens); construct: fused on or other part: Possible but unprinted fusion partner: TEL (ETV6), the usual partner for Ba/F3 lines transformed by Syk; Nothing on a partner is printed; assay: Ba/F3 Proliferation Assay, Ba/F3-Syk cells (Resazurin); conditions: 48-hour incubation
pEC50: −log10 of the molar value.
Property Name: pEC50

# example entries with known answers
> print(dat)
                                   molecule  property.name  measured.value
1  CC1(C)CNC[C@@H](COc2cc(-c3cnn(C4CCC4)c3)cc3ncccc23)O1 [Compound 3.13]          pEC50            7.45
2  Cn1cc(-c2cc3ncccc3c(OC[C@H]3CNCCO3)n2)cn1 [Compound 2.2]          pEC50            6.45
3  COCCn1ccc(-c2cc(OC[C@@H]3CNCCO3)c3nccnc3c2)c1 [Compound 8.7]          pEC50            7.82
4  Cc1cnc2cc(-c3cnn(C(C)C)c3)nc(OC[C@@H]3CNCC(C)(C)O3)c2c1 [Compound 14.10]          pEC50            7.35

I. CC(C)(C)n1cc(-c2cc(OC[C@@H]3CNCC4(CC4)O3)c3cccnc3c2)cn1 [Compound 3.20]
II. CC(C)(C)n1cc(-c2cc3ncccc3c(OC[C@@H]3CNC[C@H](C4CC4)O3)n2)cn1 [Compound 2.102]
In: Response body: label of entry with the larger pEC50; valid values I , II . Answer = label.
Out: II
(II: 7.93, I: 7.45)

a. CC(C)n1ccc(-c2cc(OC[C@@H]3CNCCCO3)c3cccnc3c2)c1 [Compound 7.10]
b. CC1(C)CNC[C@@H](COc2nc(-c3ccn(C4COC4)c3)cc3ncccc23)O1 [Compound 6.25]
In: Of a versus b , which is the one with smaller reported pEC50? Answer = label.
Out: a
(a: 7.35, b: 8.07)
